# measurement_description: Pharmacokinetics in Mongolian gerbils
# Assay type: in vivo
# conditions_used: blood, 2 mg/kg; Mongolian gerbils, dose 2, IV; read-out: Cmax
# From the text: In addition, the concentrations achieved at these doses were well in excess of the O. volvulus IC50, a requirement for in vivo activity that we had hypothesized on the basis of earlier work in the amide-linked series.
endpoint: Cmax (ng/mL)

1) COC(=O)Nc1nc2cc(C(=O)c3ccc4c(c3)COB4O)ccc2[nH]1 [compound 20]    2000
2) COC(=O)Nc1nc2ccc(C(=O)c3ccc(F)c4c3B(O)OC4)cc2[nH]1 [compound 26]    10900

P = COC(=O)Nc1nc2cc(C(=O)c3cccc4c3B(O)O[C@H]4C)ccc2[nH]1 (single isomer, unassigned) [compound 30]
Q = COC(=O)Nc1nc2cc(C(=O)c3ccc4c(c3)B(O)OC4)ccc2[nH]1 [compound 15]
Which of the two items, P and Q , has the greater recorded Cmax? // output: label of the selected item
P
(P: 7580 ng/mL, Q: 2260 ng/mL)
